- condition-description: 303.15 K; 101.33 kPa; Liquid
value-type: mass density (kg/m3)

P = CCCCCOC(C)=O [pentyl ethanoate]
Q = ClC(Cl)Cl [trichloromethane]
Please indicate which has the smaller reported mass density: P , or Q . Answer by quoting the chosen item's label.
P
(P: 867.2 kg/m3, Q: 1470.59 kg/m3)

---

- assay-method-text: refractive index (Na D-line) (dimensionless)
- condition-description: 303.15 K; 101.33 kPa; Liquid; Standard Abbe refractometry
value-type: refractive index

* CCOC(C)=O [ethyl acetate] | 1.3664
* C1CCOC1 [tetrahydrofuran] | 1.4028
* CCCCCOC(C)=O [pentyl ethanoate] | 1.3961
* COC(C)=O [methyl ethanoate] | 1.3567
* ClC(Cl)Cl [trichloromethane] | 1.441
* ClC(Cl)(Cl)Cl [tetrachloromethane] | 1.4555
* CCCCOC(C)=O [butyl ethanoate] | 1.3896
* ClC(Cl)C(Cl)Cl [1,1,2,2-tetrachloroethane] | 1.4881
* CCCCCCCl [1-chlorohexane] | 1.4168
* CCCCCCBr [1-bromohexane] | 1.4441

Measured values drawn from the NIST ThermoML archive (doi:10.1016/j.tca.2004.08.001) for this set.
